target or test system: T1, G9a and GLP (Homo sapiens, UniProt Q96KQ7+Q9H9B1)
T1 sequence (Q96KQ7 2-1210 limits assumed): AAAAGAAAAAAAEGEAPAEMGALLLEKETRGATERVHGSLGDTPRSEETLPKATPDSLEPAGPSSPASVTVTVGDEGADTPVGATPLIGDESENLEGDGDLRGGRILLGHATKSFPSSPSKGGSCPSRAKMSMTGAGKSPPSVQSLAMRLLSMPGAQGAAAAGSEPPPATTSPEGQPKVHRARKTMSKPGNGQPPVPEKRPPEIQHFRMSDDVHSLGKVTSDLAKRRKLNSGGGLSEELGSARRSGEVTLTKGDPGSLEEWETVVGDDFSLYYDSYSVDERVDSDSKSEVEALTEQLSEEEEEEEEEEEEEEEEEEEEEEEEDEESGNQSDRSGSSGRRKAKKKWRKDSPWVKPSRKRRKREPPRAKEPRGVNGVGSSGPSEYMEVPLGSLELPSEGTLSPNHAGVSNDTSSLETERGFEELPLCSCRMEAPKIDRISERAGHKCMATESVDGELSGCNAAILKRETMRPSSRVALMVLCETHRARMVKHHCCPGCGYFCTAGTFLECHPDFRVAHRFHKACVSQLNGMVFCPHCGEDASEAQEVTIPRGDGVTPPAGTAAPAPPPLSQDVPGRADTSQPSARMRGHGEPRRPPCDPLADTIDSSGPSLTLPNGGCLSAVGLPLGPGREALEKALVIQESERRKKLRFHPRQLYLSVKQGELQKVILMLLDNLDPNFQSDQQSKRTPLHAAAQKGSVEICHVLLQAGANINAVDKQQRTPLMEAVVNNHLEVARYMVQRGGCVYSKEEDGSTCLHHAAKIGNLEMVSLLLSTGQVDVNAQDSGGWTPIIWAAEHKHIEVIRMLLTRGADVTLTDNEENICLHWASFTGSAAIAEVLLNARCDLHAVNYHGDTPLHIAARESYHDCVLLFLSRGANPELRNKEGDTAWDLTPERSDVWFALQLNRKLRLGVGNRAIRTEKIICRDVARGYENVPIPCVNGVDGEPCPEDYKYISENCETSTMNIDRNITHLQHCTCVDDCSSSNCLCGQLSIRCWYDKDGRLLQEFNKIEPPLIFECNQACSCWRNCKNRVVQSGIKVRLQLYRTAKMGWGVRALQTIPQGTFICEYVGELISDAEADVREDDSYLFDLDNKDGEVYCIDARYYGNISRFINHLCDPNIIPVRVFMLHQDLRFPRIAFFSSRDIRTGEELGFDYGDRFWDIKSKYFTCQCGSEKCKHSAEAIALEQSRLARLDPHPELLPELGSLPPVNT
T1 sequence (Q9H9B1 2-1298 limits assumed): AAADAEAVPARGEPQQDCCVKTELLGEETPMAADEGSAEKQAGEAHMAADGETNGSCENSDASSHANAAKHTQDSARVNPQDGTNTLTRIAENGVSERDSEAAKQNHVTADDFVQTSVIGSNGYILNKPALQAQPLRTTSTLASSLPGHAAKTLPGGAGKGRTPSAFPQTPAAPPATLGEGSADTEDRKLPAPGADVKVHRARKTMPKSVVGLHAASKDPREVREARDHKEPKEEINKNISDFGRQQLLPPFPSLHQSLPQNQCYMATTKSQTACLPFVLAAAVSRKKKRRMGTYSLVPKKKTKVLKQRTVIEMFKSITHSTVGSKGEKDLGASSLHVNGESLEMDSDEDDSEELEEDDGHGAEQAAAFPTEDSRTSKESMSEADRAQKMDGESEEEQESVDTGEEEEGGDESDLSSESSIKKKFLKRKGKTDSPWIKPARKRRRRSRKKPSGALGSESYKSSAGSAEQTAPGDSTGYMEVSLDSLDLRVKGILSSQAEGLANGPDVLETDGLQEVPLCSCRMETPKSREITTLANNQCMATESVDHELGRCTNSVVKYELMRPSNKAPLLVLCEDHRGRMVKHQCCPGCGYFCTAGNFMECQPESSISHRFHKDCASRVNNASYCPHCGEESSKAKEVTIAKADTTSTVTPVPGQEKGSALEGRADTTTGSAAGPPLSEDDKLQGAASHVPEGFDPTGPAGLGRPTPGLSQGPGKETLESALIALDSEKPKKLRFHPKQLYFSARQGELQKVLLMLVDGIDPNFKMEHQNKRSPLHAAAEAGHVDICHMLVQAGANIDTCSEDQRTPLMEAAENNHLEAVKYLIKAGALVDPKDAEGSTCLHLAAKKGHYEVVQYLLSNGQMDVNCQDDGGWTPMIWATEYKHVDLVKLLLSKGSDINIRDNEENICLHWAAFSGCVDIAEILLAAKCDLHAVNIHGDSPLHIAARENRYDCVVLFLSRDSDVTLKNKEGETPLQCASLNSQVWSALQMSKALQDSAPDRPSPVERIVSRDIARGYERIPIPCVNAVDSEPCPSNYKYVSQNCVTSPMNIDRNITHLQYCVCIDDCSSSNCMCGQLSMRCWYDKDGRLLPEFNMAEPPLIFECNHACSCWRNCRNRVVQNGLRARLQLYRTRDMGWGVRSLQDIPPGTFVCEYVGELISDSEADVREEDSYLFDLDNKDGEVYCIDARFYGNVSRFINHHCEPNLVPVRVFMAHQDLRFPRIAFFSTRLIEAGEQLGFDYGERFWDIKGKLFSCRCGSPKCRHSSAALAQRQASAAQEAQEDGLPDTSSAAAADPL
method summary: Triple SILAC pull-down after UNC0638 treatment of 293T cells, DMSO/UNC0638 ratio of protein captured by 3×MBT;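 also: mass spectrometry (Q-Exactive) SILAC quantitation, DMSO/UNC0638 ratio computed after subtracting 3×MBTD355N mutant pull-down background, only proteins with at least twofold 3×MBT over mutant signal considered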
Assay type: cell-based
Set-up: cells were treated for 24 hours with UNC0638 at 2.5 μM or DMSO vehicle control; endogenous in cells; host or cells: HEK 293T
condition set: SILAC ratio DMSO relative to UNC0638, pull-down with 3xMBT; UNC0638 in light SILAC media; all values in log base 2
Could you please mark 1.0 for values of Relative to UNC0638 UNC Light below -0.1 log base 2 and 0.0 for values at or above it?

Use the examples below as a reference point.
1. RPRD1A (protein, UniProt Q96P16 2-312, looked up) Regulation of nuclear …: SAFSEAALEKKLSELSNSQQSVQTLSLWLIHHRKHSRPIVTVWERELRKAKPNRKLTFLYLANDVIQNSKRKGPEFTKDFAPVIVEAFKHVSSETDESCKKHLGRVLSIWEERSVYENDVLEQLKQALYGDKKPRKRTYEQIKVDENENCSSLGSPSEPPQTLDLVRALQDLENAASGDAAVHQRIASLPVEVQEVSLLDKITDKESGERLSKMVEDACMLLADYNGRLAAEIDDRKQLTRMLADFLRCQKEALAEKEHKLEEYKRKLARVSLVRKELRSRIQSLPDLSRLPNVTGSHMHLPFAGDIYSED	0.0
2. TK1 (protein, UniProt P04183 2-234, looked up) Thymidine kinase, cytosolic: SCINLPTVLPGSPSKTRGQIQVILGPMFSGKSTELMRRVRRFQIAQYKCLVIKYAKDTRYSSSFCTHDRNTMEALPACLLRDVAQEALGVAVIGIDEGQFFPDIVEFCEAMANAGKTVIVAALDGTFQRKPFGAILNLVPLAESVVKLTAVCMECFREAAYTKRLGTEKEVEVIGGADKYHSVCRLCYFKKASGQPAGPDNKENCPVPGKPGEAVAARKLFAPQQILQCSPAN	1.0

Ask: Lab note: Relative to UNC0638 UNC Light threshold -0.1 log base 2. Does this molecule come in strictly under it? CGGBP1 (protein, UniProt Q9UFW8 1-167, looked up) CGG triplet repeat-binding …: MERFVVTAPPARNRSKTALYVTPLDRVTEFGGELHEDGGKLFCTSCNVVLNHVRKSAISDHLKSKTHTKRKAEFEEQNVRKKQRPLTASLQCNSTAQTEKVSVIQDFVKMCLEANIPLEKADHPAVRAFLSRHVKNGGSIPKSDQLRRAYLPDGYENENQLLNSQDC
Result: 0.0

Ask: Given the entry NOSIP (protein, UniProt Q9Y314 1-301, looked up) Nitric oxide …: MTRHGKNCTAGAVYTYHEKKKDTAASGYGTQNIRLSRDAVKDFDCCCLSLQPCHDPVVTPDGYLYEREAILEYILHQKKEIARQMKAYEKQRGTRREEQKELQRAASQDHVRGFLEKESAIVSRPLNPFTAKALSGTSPDDVQPGPSVGPPSKDKDKVLPSFWIPSLTPEAKATKLEKPSRTVTCPMSGKPLRMSDLTPVHFTPLDSSVDRVGLITRSERYVCAVTRDSLSNATPCAVLRPSGAVVTLECVEKLIRKDMVDPVTGDKLTDRDIIVLQRGGTGFAGSGVKLQAEKSRPVMQA , would its reported Relative to UNC0638 UNC Light be below -0.1 log base 2?
Result: 1.0

src = patent US20140274782A1
